Measured mass density by item
# Measurement parameters: 343.15 K; 101.33 kPa; Liquid; Vibrating tube method
± gives the expanded uncertainty stated by the source.
A bare number is not enough; add the unit after it.

Worked set:
Compound | mass density
CCn1cc[n+](C)c1.C[C@H](N)C(=O)[O-] [1-ethyl-3-methylimidazolium L-alaninate] | 1095.2 ± 12 kg/m3
CCn1cc[n+](C)c1.NCC(=O)[O-] [1-ethyl-3-methylimidazolium ammonioacetate] | 1133.8 ± 9.9 kg/m3
CC[n+]1ccn(C)c1.N[C@@H](CO)C(=O)[O-] [3-ethyl-1-methyl-1H-imidazolium L-serinate] | 1175.7 ± 14 kg/m3
CCn1cc[n+](C)c1.O=C([O-])[C@@H]1CCCN1 [1-ethyl-3-methyl-1H-imidazolium L-prolinate] | 1115 ± 7 kg/m3

// switching to the query compound
Q. Param item = CCn1cc[n+](C)c1.NCCS(=O)(=O)[O-] [1-ethyl-3-methylimidazolium taurinate] ; retrieve measured mass density.
A. 1223 ± 14 kg/m3

Measured values drawn from the NIST ThermoML archive (doi:10.1021/acs.jced.5b00242) for this set.
